EXPERIMENTAL SYSTEM: T1, FLAG-Hs_FPR1 C-terminally fused to Renilla Luciferase 8 (human, UniProt P21462 1-350)
T1 sequence (looked up): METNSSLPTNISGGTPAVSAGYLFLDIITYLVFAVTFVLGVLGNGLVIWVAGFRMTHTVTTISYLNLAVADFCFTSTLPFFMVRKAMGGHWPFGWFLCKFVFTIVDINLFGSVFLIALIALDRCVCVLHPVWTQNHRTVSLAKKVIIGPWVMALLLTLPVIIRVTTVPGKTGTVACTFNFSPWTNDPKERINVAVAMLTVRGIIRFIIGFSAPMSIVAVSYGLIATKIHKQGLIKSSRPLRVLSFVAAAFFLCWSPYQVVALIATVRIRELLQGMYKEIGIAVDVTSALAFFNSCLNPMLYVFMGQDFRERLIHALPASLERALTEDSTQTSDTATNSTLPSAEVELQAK
ASSAY INFO: cell-based or functional assay
Where no end group is shown, it is not given here. [ ]: non-standard residue; d: D form. The star is where a group is joined. For = O=C*
# key: entry, value: BRET of receptor-RLuc8 with Arrestin 3-YFP: Emax (% of 1 μM WKYMVm)
Field: numeric (%). Do not append units.

# count of solved cases: 3
WKYMVM (synthetic hexapeptide, all L residues; also called L-enantiomer of WKYMVm; source: bought: Tocris) | 75
For-Met-Leu-Phe [fMet-Leu-Phe (fMLF)] | 97
For-MLFK [fMet-Leu-Phe-Lys (fMLFK)] | 97.4

// query Consider the binder shown here: WKYMV[dM] (the last residue is the D form; the bought peptide is probably also an amide (surmise); source: bought: Tocris) [WKYMVm] What is its recorded BRET of receptor-RLuc8 with Arrestin 3-YFP: Emax (% of 1 μM WKYMVm)?
// result 105
